Tested on: Adult Nippostrongylus brasiliensis
Experiment: In Vitro Assay 5: Nippostrongylus brasiliensis (NIPOBR), acetylcholine esterase readout
Assay type: cell-based
Conditions: acetylcholine esterase activity in medium vs negative control, adult worms, read-out: EC50
Procedure: In Vitro Assay 5: Nippostrongylus Brasiliensis (NIPOBR) […] Based on the evaluation of a wide concentration range, concentration-response curves as well as EC50-values were calculated.
RECORDED_METRIC: EC50

RECORD_SMILES: Cc1nn2c(N3CCOCC3)c(C(=O)NN3CCOc4ccccc43)sc2c1-c1cc(F)cc(F)c1F
EC50: 0.1 to 1 µg/mL

Bench note: what EC50 did CC(C)c1c(C(=O)NN2CCOc3ccccc32)oc2c(-c3cc(F)cc(F)c3F)cccc12 show?
0.1 to 1 µg/mL

Values from patent US20240059680A1
